The origin of these recorded values is patent US20210395256A1.

- Test Description: Liver microsomes metabolic stability assay, rat
- Assay type: in vitro ADME
- Test Settings: male, rat liver microsomes 0.5 mg/mL, 37° C.
Reported Endpoint: microsomal CLint at 2 μM (µL/min/mg)

Field: example entries. Status: answers known.
[[record]]
smiles_code = "Fc1ccc(F)c([C@H]2CCCN2c2ccn3ncc(-c4nc5cnccc5[nH]4)c3n2)c1"
reported_endpoint = "microsomal CLint at 2 μM"
val = 17.2

[[record]]
smiles_code = "OC1(c2nnc(-c3cnn4ccc(N5CCC[C@@H]5c5cc(F)ccc5F)nc34)[nH]2)CCC1"
reported_endpoint = "microsomal CLint at 2 μM"
val = 50

[[record]]
smiles_code = "N#Cc1cc2nc(-c3cnn4ccc(N5CCC[C@@H]5c5cc(F)ccc5F)nc34)[nH]c2cc1C#N"
reported_endpoint = "microsomal CLint at 2 μM"
val = 3.6


P. CSc1cc2nc(-c3cnn4ccc(N5CCC[C@@H]5c5cc(F)ccc5F)nc34)[nH]c2cc1C#N
Q. Fc1ccc(F)c([C@H]2CCCN2c2ccn3ncc(-c4nnc(-c5ccc(N6CCNCC6)cc5)[nH]4)c3n2)c1
R. CS(=O)(=O)c1cc2nc(-c3cnn4ccc(N5CCC[C@@H]5c5cc(F)ccc5F)nc34)[nH]c2cc1C(N)=O
S. Fc1ccc(F)c([C@H]2CCCN2c2ccn3ncc(-c4nc5cc(Cl)c(OC(F)(F)F)cc5[nH]4)c3n2)c1
Input: Rank descending by microsomal CLint at 2 μM. Please respond by ranking the labels in the order requested.
Output: R, P, S, Q
(R: 45.2 µL/min/mg, P: 21 µL/min/mg, S: 10.2 µL/min/mg, Q: 4.6 µL/min/mg)
